I'd appreciate it if you could supply GI50 values for the items below.
System: RPMI-8226
Protocol summary: NCI tumour cell line growth inhibition, 48 h
The source made the active and inactive calls. No stated cut-off is given here; in the data, active = GI50 up to about 1.1 µM and inactive = higher.

Recorded GI50 for `COc1ccc(OC)c(NS(=O)(=O)c2ccc3nc(C)n(NS(=O)(=O)c4cc(OC)ccc4OC)c(=O)c3c2)c1` , please?
20.8 µM (inactive)

Next compound: `CCCn1cnc2c(SCC(=O)O)nc(N)nc21`
> 100 µM (inactive)

Now the compound `N#CCCOc1cccc(C2(N3CCCCC3)CCCCC2)c1`
> 100 µM (inactive)

Another compound: CC1OC(=O)C(O)=C1O (configuration not stated)
> 100 µM (inactive)

Next compound up: CN1N=C(c2ccncc2)OC1c1ccc(Cl)cc1Cl (configuration not stated)
72.8 µM (inactive)

Quick one: `COC(=O)/C=C1/OC(c2ccccc2)=CC1=O`
6.25 µM (inactive)

What do we get for C=C1C2CC[C@@](C)(O)C2[C@H]2OC(=O)C(=C)[C@@H]2C[C@H]1O (some centres not stated) ?
13.1 µM (inactive)

Then this compound: CCC1(CN(C)C)CC/C(=C\c2ccc3c(c2)OCO3)C1=O (configuration not stated)
40.7 µM (inactive)

Field entry: `CCCN(CCC)C(=S)N/N=C(/C)c1ccccc1O`
4.33 µM (inactive)

Also CC1NC(=O)C2=C1C(N)=NC(=O)C2 (configuration not stated) , if possible.
> 100 µM (inactive)

Next record, please: CC(C)[Si]1(C(C)C)OCC2OC(n3c(C(=O)c4ccccc4)cc(=O)[nH]c3=O)CC2O[Si](C(C)C)(C(C)C)O1 (configuration not stated)
2.85 µM (inactive)

Also, `CC(C)(C)OC(=O)NCC(c1c[nH]c2ccc(Br)cc12)c1c[nH]c2ccc(Br)cc12` please.
> 100 µM (inactive)

Could you do the same for `Cc1ccc2c(C)c3ccc4ccccc4c3c[n+]2c1.[O-][Cl+3]([O-])([O-])[O-]` , please?
16.6 µM (inactive)

Cool, now Cn1cncc1CC1COC(=O)C1C(O)c1ccccc1 (configuration not stated)
> 100 µM (inactive)

Entry `CCCC(=O)Oc1c2ccsc2c(OC(=O)CCC)c2ccsc12` please
1.41 µM (inactive)

Now this one: `O=C1[C@@H]2[C@@H](CN3CN(c4ccccc4)N=C(c4ccccc4)[C@@]23c2ccccc2)C(=O)N1c1ccccc1`
1.61 µM (inactive)

Quick one: CC1OC(n2cc(F)c(=O)[nH]c2=O)CCC1O (configuration not stated)
56.1 µM (inactive)

And for `COc1cc(/C=C\c2cccnc2)cc(OC)c1OC` ?
19.6 µM (inactive)

What about `COc1ccc(/C=c2/s/c(=C(\C#N)c3nc4ccccc4[nH]3)n(-c3ccccc3)c2=O)cc1` ?
> 100 µM (inactive)

Same question for O=C(Nc1ccccc1SC(/C=C/NNC1=NN=C(c2ccccc2)C(c2ccccc2)N1)c1ccccc1)c1ccc(Cl)cc1Cl (configuration not stated) please.
58.6 µM (inactive)

Would you mind doing `CSc1c(C#N)c(N)n(-c2ccc(C)cc2)c(=O)c1C#N` as well?
> 100 µM (inactive)

Now try `Clc1ccc(OCc2nnc3sc(SSc4nn5c(COc6ccc(Cl)cc6)nnc5s4)nn23)cc1` .
44.8 µM (inactive)
